# PROTOCOL SUMMARY: qHTS Assay for Modulators of miRNAs and/or Inhibitors of miR-21
# STATED CONDITIONS: HeLa miR-21-FLuc reporter, luciferase luminescence, 48 h; actives lower the signal
Screen size: about 340,000 compounds; about 3,300 (0.97%) were called active. Another 9% or so got no clear call; they are omitted. The list shows a part of the results.
ASSAY READOUT: Potency

Which Potency value is on record for O=c1/c(=C\c2ccc(F)cc2)sc2n1CCCN=2 ?
1.85 µM (active)

Which Potency value is on record for Cc1ccc(C(=O)O/N=C(\N)c2cccnc2)cc1[N+](=O)[O-] ?
7.36 µM (active)

* * *

Potency values for the compounds below.
# PROTOCOL SUMMARY: qHTS Assay for Modulators of miRNAs and/or Inhibitors of miR-21
# STATED CONDITIONS: HeLa miR-21-FLuc reporter, luciferase luminescence, 48 h; actives lower the signal
Screen size: about 340,000 compounds; about 3,300 (0.97%) were called active. Inconclusive results (about 9%) are left out. The list shows a part of the results.

1. Cn1nnc2cc(C(=O)Nc3ccc4ccccc4c3)ccc21 = 0.585 µM (active)

API: the following record is the query input.
Which Potency value is on record for Cc1cc(O)cc2c(=O)c3ccccc3sc12 ?
16.5 µM (active)

* * *

# PROTOCOL SUMMARY: qHTS Assay for Modulators of miRNAs and/or Inhibitors of miR-21
# STATED CONDITIONS: HeLa miR-21-FLuc reporter, luciferase luminescence, 48 h; actives lower the signal
The campaign covered roughly 340,000 compounds. About 3,300 (0.97%) were called active. Another 9% or so got no clear call; they are omitted. This is one part of the list.
ASSAY READOUT: Potency

As a guide, the following entries are already answered.
1) CC(=O)Nc1ccc(OCC(O)Cn2ccnc2)cc1 (configuration not stated) = 16.5 µM (active)
2) Cn1c(CCCOc2ccc(Cl)cc2Cl)n[nH]c1=S = 13.1 µM (active)
3) CCC(=O)N1CCC(c2ccc(OC)cc2)=N1 = 13.1 µM (active)
4) COc1c(O)cc2oc(-c3ccc(O)cc3)cc(=O)c2c1O = 2.33 µM (active)
5) CCNC(=O)CCCOc1ccc(Cl)cc1Cl = 16.5 µM (active)

Which Potency value is on record for COc1c(O)cc2oc(-c3ccc(O)c(O)c3)cc(=O)c2c1O ?
5.21 µM (active)

Which Potency value is on record for N#Cc1c(N)nc2c(c1N)CC(COc1ccccc1)O2 (configuration not stated) ?
7.36 µM (active)

* * *

# PROTOCOL SUMMARY: qHTS Assay for Modulators of miRNAs and/or Inhibitors of miR-21
# STATED CONDITIONS: HeLa miR-21-FLuc reporter, luciferase luminescence, 48 h; actives lower the signal
In all, about 340,000 compounds went through this assay and about 3,300 (0.97%) were called active. About 9% were inconclusive and are not listed. This is one part of the list.
ASSAY READOUT: Potency

As a guide, the following entries are already answered.
1) COc1cc(OC)cc(C(=O)Nc2ccc3nc4n(c(=O)c3c2)CCCCC4)c1 = 2.33 µM (active)
2) CC1CCn2c(nc3cc(C(=O)NCc4ccccc4)ccc32)C1 (configuration not stated) = 7.36 µM (active)

Which Potency value is on record for O=C(NC1CCCCC1)c1cc(-c2ccccc2O)on1 ?
7.36 µM (active)

Which Potency value is on record for O=S1(=O)CCN2C(=N1)Sc1c2ccc2c1CCCC2 ?
13.1 µM (active)

Which Potency value is on record for COc1ccc(-c2cc3nc4n(c(=O)c3s2)CCCCC4)cc1 ?
0.369 µM (active)

Which Potency value is on record for COc1ccc(-c2nnc(-c3ccc(C)cc3)o2)cc1 ?
2.07 µM (active)

Which Potency value is on record for Clc1ccc(-c2nc(-c3cnccn3)no2)cc1 ?
0.521 µM (active)

* * *

Potency values for the compounds below.
# PROTOCOL SUMMARY: qHTS Assay for Modulators of miRNAs and/or Inhibitors of miR-21
# STATED CONDITIONS: HeLa miR-21-FLuc reporter, luciferase luminescence, 48 h; actives lower the signal
About 3,300 (0.97%) of roughly 340,000 compounds were called active. Roughly 9% stayed inconclusive and do not appear here. Some of the results follow.

Which Potency value is on record for CCc1nc2oc3ccccc3c(=O)c2c(=O)n1-c1ccc(C)cc1 ?
1.65 µM (active)

Which Potency value is on record for O=C(c1ccc(-c2ccc(Cl)cc2Cl)o1)N1CCOCC1 ?
7.36 µM (active)

Which Potency value is on record for CC(=O)Nc1ccccc1C(=O)C(=O)Nc1ccc(C)c(C)c1 ?
5.21 µM (active)

Which Potency value is on record for COc1ccc(Nc2oc(-c3ccc(OC)cc3)nc2C#N)cc1 ?
2.93 µM (active)

* * *

# PROTOCOL SUMMARY: qHTS Assay for Modulators of miRNAs and/or Inhibitors of miR-21; further: potency means the concentration at half of the fitted maximal effect; nearly all actives have a fitted effect of over 55% in size
# STATED CONDITIONS: HeLa miR-21-FLuc reporter, luciferase luminescence, 48 h; actives lower the signal
# Description: MLSCN Grant: 1 R21 NS059478-01 Assay Provider: Qihong Huang, The Wistar Institute NCGC Assay Overview: MicroRNAs (miRNAs) are endogenously encoded small (~20-25 nucleotides), nonprotein-coding RNAs that are involved in post-transcriptional repression of target messenger RNAs (mRNAs) (Le and Hannon, 2004). […]
The whole screen tested about 340,000 compounds, of which about 3,300 (0.97%) were called active. Another 9% or so got no clear call; they are omitted. The list shows a part of the results.
Potency values for the compounds below.

As a guide, the following entries are already answered.
1. CC(Oc1ccc(Cl)cc1Cl)c1nc(-c2ccccn2)no1 (configuration not stated) = 6.56 µM (active)
2. Clc1cc(Cl)c(OCc2nc(-c3ccccn3)no2)cc1Cl = 0.736 µM (active)
3. Clc1ccc(OCc2nc(-c3ccncc3)no2)c(Br)c1 = 1.65 µM (active)
4. O=C(NC(=S)Nc1nc2ccccc2s1)c1cccs1 = 0.521 µM (active)
5. CCOc1cc(CNC(=O)c2ccc(NC(=O)c3nsc4ccccc34)cc2)ccc1OC = 0.585 µM (active)

Which Potency value is on record for CCOc1ccc(N=C/C=C/c2ccccc2)c(O)c1 ?
3.29 µM (active)

Which Potency value is on record for COc1ccc(-c2csc(-c3cccnc3)n2)cc1C ?
3.69 µM (active)

* * *

# PROTOCOL SUMMARY: qHTS Assay for Modulators of miRNAs and/or Inhibitors of miR-21; further: potency means the concentration at half of the fitted maximal effect; nearly all actives have a fitted effect of over 55% in size
# STATED CONDITIONS: HeLa miR-21-FLuc reporter, luciferase luminescence, 48 h; actives lower the signal
Hit rate of the full screen: of about 340,000 compounds, about 3,300 (0.97%) were called active. Not shown: some 9% with an inconclusive outcome. The list shows a part of the results.
ASSAY READOUT: Potency

1. CCCCCC(=O)Nc1ccc2ccccc2c1 = 4.65 µM (active)

Which Potency value is on record for O=C(Nc1ccccc1O)c1ccc(NC(=O)C2CC2)cc1 ?
6.56 µM (active)

Which Potency value is on record for COc1cccc(OCc2cc(C(=O)N3CCN(c4ccccc4OC)CC3)no2)c1 ?
16.5 µM (active)

Which Potency value is on record for CCn1c(C)nc2cc(C(=O)NNC(=S)Nc3ccc(F)cc3)ccc21 ?
8.26 µM (active)

Which Potency value is on record for CC(C)c1ccc(N(C(=O)c2ccco2)C(C(=O)NC2CCCC2)c2ccncc2)cc1 (stereo unspecified) ?
6.56 µM (active)

* * *

Potency values for the molecules below.
# PROTOCOL SUMMARY: qHTS Assay for Modulators of miRNAs and/or Inhibitors of miR-21; further: potency means the concentration at half of the fitted maximal effect; nearly all actives have a fitted effect of over 55% in size
# STATED CONDITIONS: HeLa miR-21-FLuc reporter, luciferase luminescence, 48 h; actives lower the signal
The campaign covered roughly 340,000 compounds. About 3,300 (0.97%) were called active. Not shown: some 9% with an inconclusive outcome. The list shows a part of the results.

1. COc1cc(SC)ccc1C(=O)Nc1ccc2ncccc2c1 = 0.369 µM (active)
2. Cc1ccc(-n2c(C)cc(/C=C3\SC(=O)NC3=O)c2C)cc1 = 1.47 µM (active)
3. O=C(Oc1ccc2c(c1)OCO2)c1ccc(F)cc1Cl = 16.5 µM (active)

Which Potency value is on record for C/C(=N\NC(=O)c1cccs1)C(C)(C)C ?
4.65 µM (active)

* * *

# PROTOCOL SUMMARY: qHTS Assay for Modulators of miRNAs and/or Inhibitors of miR-21; further: potency means the concentration at half of the fitted maximal effect; nearly all actives have a fitted effect of over 55% in size
# STATED CONDITIONS: HeLa miR-21-FLuc reporter, luciferase luminescence, 48 h; actives lower the signal
Out of some 340,000 compounds screened, about 3,300 (0.97%) were called active. Not shown: some 9% with an inconclusive outcome. The list shows a part of the results.
ASSAY READOUT: Potency

1. Cc1ccc(SCCC(=O)N2CCC(C)CC2)cc1 = 7.36 µM (active)
2. Fc1ccc(-c2cc(-c3nc(-c4ccccc4)no3)[nH]n2)cc1 = 5.85 µM (active)
3. Fc1ccccc1-c1nc(-c2ccccc2)no1 = 1.17 µM (active)

Which Potency value is on record for COc1cc(C2NC(=O)c3c(sc4c3CCN(C)C4)N2)ccc1OC(=O)c1ccccc1 (centres undefined) ?
13.1 µM (active)

Data origin: PubChem BioAssay AID2289
